System: RAW-Dual (murine macrophage reporter line)
ASSAY OVERVIEW: NF-kB reporter (SEAP) activity fold change vs agonist alone; higher = enhanced NF-kB activity
RECORDED CONDITIONS: modulator concentration 10 µM; agonist: CpG ODN 1826 0.5 ug/mL
ENDPOINT: NF-kB reporter
Answers are plain numbers.

Here's what some known entries look like.
| COMPOUND | NF-kB reporter |
| --- | --- |
| Cc1cccc(C(=O)N2CCCC(c3nnc(CC(C)(C)C)o3)C2)c1 (configuration not stated) | 0.877 |
| CN(C)CCCN1c2ccccc2CCc2ccc(Cl)cc21.Cl | 0.559 |
| COc1ccc(N(CC(=O)Nc2ccccc2C(F)(F)F)S(C)(=O)=O)cc1Cl | 0.96 |
| CC(=O)Nc1nc(C2CC2)cc(-c2ccco2)c1C#N | 1.38 |
| NS(=O)(=O)c1ccc2c(c1)C1C=CCC1C(C(=O)O)N2 (configuration not stated) | 0.586 |

Would you mind listing NF-kB reporter for each of the following compounds?
1. CCC(=O)Nc1ccc(S(=O)(=O)N2CCC(Oc3ncnc(CC)c3F)C2)c(C)c1 (configuration not stated)
2. CN1CCN(c2ccc(-c3cccc(NC(=O)COc4ccc(Cl)cc4)c3)nn2)CC1

[1, 0.24]

Would you mind listing NF-kB reporter for each of the following compounds?
1. OC1(c2ccc(Cl)c(C(F)(F)F)c2)CCN(CCCC(c2ccc(F)cc2)c2ccc(F)cc2)CC1
2. CC(C)Nc1cc(-c2c[nH]c(C(=O)N[C@H](CO)c3cccc(Cl)c3)c2)c(Cl)cn1
3. CCN[C@H]1CN(CCCOC)S(=O)(=O)c2sc(S(N)(=O)=O)cc21

[0.101, 0.208, 1.01]

Would you mind listing NF-kB reporter for each of the following compounds?
1. Cc1cc2c(C)cc[n+](CCCS(=O)(=O)[O-])c2cc1C
2. CCC(=O)Nc1ccc(NC(=O)c2ccccc2OC)cc1
3. CC1=C(C(=O)Nc2cccc(C)n2)C(c2ccsc2)C2=C(CC(C)(C)CC2=O)N1 (configuration not stated)
4. CCOC(=O)C1=C(COCCN)NC(C)=C(C(=O)OC)C1c1ccccc1Cl (configuration not stated)
5. COc1ccc(N(CC(=O)NCCSCc2cccc(Cl)c2)S(C)(=O)=O)cc1Cl
6. O=C(COC(=O)c1ccc2ccccc2n1)c1ccc(Br)cc1
7. COc1ccc(CNCc2cccc(C(F)(F)F)c2)cc1

[0.942, 0.932, 1.04, 0.533, 0.917, 0.988, 0.749]
